Papp at 18 hours, 50 µM listing for selected compounds.
Assay: PAMPA (parallel artificial membrane permeability assay)
Format: in vitro ADME
Conditions: PAMPA; membrane permeation rate (Pe); 50 mM MOPSO buffer pH 6.5 with 5.0% glycocholic acid, 37° C., 18 hours; read-out: iPAMPA Pe
Starred links: 1 amine or outer side, 2 acyl side, 3 side chain; linkers in the order of their positions; H or OH if unused. Positions of bridges follow the written chain, without caps; N, C: chain ends. Non-standard residues stand in square brackets, D forms with d. Residues, ends and D or L forms follow the SMILES beside them. *: point of attachment. Phe(3-(CH2)4CO) = O=C([C@H](Cc1cccc(CCCCC(=O)[*:3])c1)N[*:1])[*:2]; NMeF = CN[C@@H](Cc1ccccc1)C(=O)O; NMeI = CC[C@H](C)[C@H](NC)C(=O)O; NMeβAla = CN(CCC(=O)[*:2])[*:1]; NMeL = CN[C@@H](CC(C)C)C(=O)O; NMeA = CN[C@@H](C)C(=O)O; Piperidide = C1CCN(*)CC1
Give the quantity in ×10⁻⁶ cm/s, number only.

Record excerpt, results attached:
- compound: "CC[C@H](C)[C@@H]1NC(=O)[C@H](Cc2ccccc2)N(C)C(=O)[C@H](Cc2ccccc2)NC(=O)[C@H](CC(C)C)N(C)C(=O)[C@H](C(C)C)NC(=O)[C@H](CC(C)C)NC(=O)CCCCc2cccc(c2)C[C@@H](C(=O)N2CCCCC2)NC(=O)[C@H]([C@@H](C)O)NC(=O)[C@H](CC(C)C)NC(=O)[C@H](C)N(C)C1=O [DP-894] (LV[NMeL]F[NMeF]I[NMeA]LT[Phe(3-(CH2)4CO)]-Piperidide; lactam N-10)"
  Papp at 18 hours, 50 µM, ×10⁻⁶ cm/s: 0.46
- compound: "CC(C)C[C@@H]1NC(=O)[C@H]([C@@H](C)O)NC(=O)[C@H](CC(C)C)NC(=O)[C@H](CC(C)C)N(C)C(=O)[C@H](Cc2ccccc2)NC(=O)[C@H](Cc2ccccc2)NC(=O)[C@H](C)N(C)C(=O)C[C@@H](C(=O)N2CCCCC2)NC(=O)[C@H](Cc2ccccc2)N(C)C(=O)CNC1=O [DP-116] ([NMeA]FF[NMeL]LTLG[NMeF]D-Piperidide; lactam N-10)"
  Papp at 18 hours, 50 µM, ×10⁻⁶ cm/s: 23

Here is the next item to consider.
Give the reported Papp at 18 hours, 50 µM for this compound. CC[C@H](C)[C@H]1C(=O)N[C@@H](Cc2ccccc2)C(=O)N[C@@H]([C@@H](C)O)C(=O)N2CCC[C@H]2C(=O)N[C@@H](Cc2ccccc2)C(=O)N[C@H](C(=O)N2CCCCC2)CC(=O)N(C)CCC(=O)N(C)[C@@H](CC(C)C)C(=O)N(C)[C@@H](CC(C)C)C(=O)N[C@@H](CC(C)C)C(=O)NCC(=O)N1C [DP-239] ([NMeβAla][NMeL][NMeL]LG[NMeI]FTPFD-Piperidide; lactam N-11)
25
